- experimental_protocol: Phase I clinical study in healthy human volunteers, plasma concentration after intravenous and intramuscular administration
- measurement_context: human, plasma, iv
measurement_kind: half-life

Identify measured half-life associated with CCC(CC)C(NC(C)=O)[C@@H]1[C@H](O)[C@@H](C(=O)O)C[C@H]1NC(=N)N (stereo partly shown) > 12 h
